src = ChEMBL document CHEMBL3352561

Procedure Summary: Cytotoxicity against mouse HT22 cells assessed as cell viability at 1 to 25 uM after 24 hrs by MTT assay relative to control
Assay type: cell-based, HT-22
Test Settings: HT22 cells, read-out: Activity
Property Label: viability at 24 h, up to 25 µM (%)
Value expressed in %; do not type the unit.

Compound: CC(=O)/C=C/c1ccc(O)cc1
Property Label: viability at 24 h, up to 25 µM
Unit: %
Recorded Value: 50

Turning now to a further record.
viability at 24 h, up to 25 µM reading for `COc1cc(CCC(=O)CCCCc2ccc(O)cc2)ccc1O` : 37

----------
Here the recorded viability at 24 h, 25 µM is given for each entry.
Procedure Summary: Cytotoxicity against mouse HT22 cells assessed as cell viability at 25 uM after 24 hrs by MTT assay relative to control
Type: cell-based, HT-22
Test Settings: read-out: Activity
Value expressed in %; do not type the unit.

viability at 24 h, 25 µM reading for `O=C(CCCCc1ccc(O)cc1)CCc1ccc(O)cc1` : 25

viability at 24 h, 25 µM reading for `O=C(/C=C/c1ccc(O)cc1)CCCCc1ccc(O)cc1` : 25

viability at 24 h, 25 µM reading for `O=C(/C=C/c1ccc(O)c(O)c1)CCCCc1ccc(O)c(O)c1` : 78

viability at 24 h, 25 µM reading for `COc1ccc(CCCCC(=O)CCc2ccc(OC)c(OC)c2)cc1OC` : 43

viability at 24 h, 25 µM reading for Oc1ccc(CCCCC(O)CCc2ccc(O)cc2)cc1 (racemic) : 25

----------
Procedure Summary: Cytotoxicity against mouse HT22 cells assessed as cell viability at 1 uM after 24 hrs by MTT assay relative to control
Type: cell-based, HT-22
Test Settings: read-out: Activity
Property Label: viability at 24 h, 1 µM (%)
Value expressed in %; do not type the unit.

viability at 24 h, 1 µM reading for `COc1ccc(CCCCC(=O)CCc2ccc(OC)c(OC)c2)cc1OC` : 75

----------
Procedure Summary: Cytotoxicity against mouse HT22 cells assessed as cell viability at 10 uM after 24 hrs by MTT assay relative to control
Type: cell-based, HT-22
Test Settings: read-out: Activity
Criterion: viability at 24 h, 10 µM strictly under 70%. Met: fulfilled. Not met: not fulfilled.

Molecule: COc1cc(CCCCC(O)CCc2ccc(O)cc2)ccc1O (stereo not given)
Category: not fulfilled
//
Molecule: O=C(CCCCc1ccc(O)cc1)CCc1ccc(O)cc1
Category: fulfilled

Now consider the entry below.
(Q) viability at 24 h, 10 µM under 70%? Item: `COc1cc(CCCCC(=O)/C=C/c2ccc(O)cc2)ccc1O`
(A) fulfilled

----------
Procedure Summary: Cytotoxicity against mouse HT22 cells assessed as reduction in cell viability at 25 uM after 24 hrs by MTT assay relative to control
Type: cell-based, HT-22
Test Settings: read-out: INH
Property Label: cytotoxicity at 24 h, 25 µM (%)
Value expressed in %; do not type the unit.

cytotoxicity at 24 h, 25 µM reading for COc1cc(/C=C/C(=O)CC(=O)/C=C/c2ccc(O)c(OC)c2)ccc1O [CURCUMIN] : 36

----------
Procedure Summary: Cytotoxicity against mouse HT22 cells assessed as cell viability at 10 uM after 24 hrs by MTT assay relative to control
Assay type: cell-based, HT-22
Test Settings: read-out: Activity
Criterion: viability at 24 h, 10 µM strictly under 70%. Met: 1 (yes). Not met: 0 (no).

Compound: COc1cc(CCC(O)CCCCc2ccc(O)cc2)ccc1O (stereo unspecified)
Category: 0 (no)
--
Compound: COc1cc(CCCCC(O)CCc2ccc(O)c(OC)c2)ccc1O (stereo unspecified)
Category: 0 (no)
--
Compound: COc1cc(/C=C/C(=O)CCCCc2ccc(O)c(OC)c2)ccc1O
Category: 1 (yes)
--
Compound: Oc1ccc(CCCCC(O)CCc2ccc(O)cc2)cc1 (racemic)
Category: 1 (yes)

Now consider the entry below.
(Q) viability at 24 h, 10 µM under 70%? Item: `O=C(/C=C/c1ccc(O)cc1)CCCCc1ccc(O)cc1`
(A) 1 (yes)
